# test target: KRas^G12R (Homo sapiens, UniProt P01116, G12R)
# Construct: Biotinylated KRas (corresponding to amino acids 1-169, produced at Accelegan Inc.); biotin (biotinylated); purchased Accelegan Inc
# Sequence (P01116 1-169 isoform P01116-2 G12R): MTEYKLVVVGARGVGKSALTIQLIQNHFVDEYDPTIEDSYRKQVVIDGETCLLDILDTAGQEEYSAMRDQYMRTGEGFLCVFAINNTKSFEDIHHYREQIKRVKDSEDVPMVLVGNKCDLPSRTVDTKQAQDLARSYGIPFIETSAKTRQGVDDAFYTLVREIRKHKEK
# test name: KRas binding assay (TR-FRET tracer displacement), KRas G12R
Threshold check on IC50: strictly below 500 nM is 1; on or above 500 nM is -1.

1) CN(C)CC1(COc2nc(N3CCCC4(CCO4)C3)c3cnc(-c4cc(O)cc5ccc(F)c(Cl)c45)c(F)c3n2)CC1 (stereo not drawn)    1
2) CCc1c(F)ccc2cc(O)cc(-c3ncc4c(N5CCC[C@@](C)(O)C5)nc(OC[C@@]56CCCN5[C@H](COCC5CCCC5)CC6)nc4c3F)c12    1
3) CCc1c(F)ccc2cc(O)cc(-c3ncc4c(N5CC6CCC(C(=O)N(C)C)(C6)C5)nc(OC[C@@]56CCCN5C[C@H](F)C6)nc4c3F)c12 (stereo partly drawn)    1
4) C[C@@H]1C[C@@H]1c1c(Cl)cc(O)cc1-c1ncc2c(N3CCC[C@@](C)(O)C3)nc(OC[C@@]34CCCN3C[C@H](F)C4)nc2c1F    1

For this molecule, is IC50 lower than 500 nM? Oc1cc(-c2ncc3c(N4C[C@@H]5C[C@H](C4)[C@H](O)C5)nc(OC[C@@]45CCCN4C[C@H](F)C5)nc3c2F)c2ccccc2c1
1

Entry to check: CCc1c(F)ccc2cc(O)cc(-c3ncc4c(N5CCC(N6CCCCS6(=O)=O)C5)nc(OC[C@@]56CCCN5C[C@H](F)C6)nc4c3F)c12 (stereo partly drawn)
-1

Try the molecule CCc1c(F)ccc2cc(O)cc(-c3ncc4c(NCC5CNC(=O)CO5)nc(OC[C@@]56CCCN5C[C@H](F)C6)nc4c3F)c12 (stereo partly drawn)
1

Also CCc1c(F)ccc2cc(O)cc(-c3ncc4c(N5CCC(S(C)(=N)=O)C5)nc(OC[C@@]56CCCN5C[C@H](F)C6)nc4c3F)c12 (stereo partly drawn) , if possible.
1

Try CCc1c(F)ccc2cc(O)cc(-c3ncc4c(N5CCCOC(CCOC)C5)nc(OC[C@@]56CCCN5C[C@H](F)C6)nc4c3F)c12 (stereo partly drawn) next.
1

###

# test target: KRas^G12V (Homo sapiens, UniProt P01116, G12V)
# Construct: Biotinylated KRas (corresponding to amino acids 1-169, produced at Accelegan Inc.); biotin (biotinylated); purchased Accelegan Inc
# Sequence (P01116 1-169 isoform P01116-2 G12V): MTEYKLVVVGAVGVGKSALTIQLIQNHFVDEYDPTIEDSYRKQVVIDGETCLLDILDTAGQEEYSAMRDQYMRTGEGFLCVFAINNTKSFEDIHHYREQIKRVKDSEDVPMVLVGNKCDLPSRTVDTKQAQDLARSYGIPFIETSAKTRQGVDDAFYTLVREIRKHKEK
# test name: KRas binding assay (TR-FRET tracer displacement), KRas G12V
experimental readout: IC50

Consider the worked cases shown below.
1. CN(C)CC1(COc2nc(N3CCCC4(CCO4)C3)c3cnc(-c4cc(O)cc5ccc(F)c(Cl)c45)c(F)c3n2)CC1 (stereo not shown)    < 2 nM
2. CCc1c(F)ccc2cc(O)cc(-c3ncc4c(N5CCCn6nc(C(=O)N(C)C)c(C)c6C5)nc(OC[C@@]56CCCN5C[C@H](F)C6)nc4c3F)c12    < 2 nM
3. CCc1c(F)ccc2cc(O)cc(-c3ncc4c(N5C6CNC(=O)CC5COC6)nc(OC[C@@]56CCCN5C[C@H](F)C6)nc4c3F)c12 (stereo partly shown)    85 nM

Now consider a different compound.
What IC50 value was documented for this compound, CCc1c(F)ccc2cc(O)cc(-c3ncc4c(N5C[C@H]6C[C@@H](C5)[C@H](O)[C@H]6O)nc(OC[C@@]56CCCN5C[C@H](F)C6)nc4c3F)c12 (single isomer, unassigned) ?
< 2 nM

###

# test target: KRas^G12D (Homo sapiens, UniProt P01116, G12D)
# Construct: Biotinylated KRas (corresponding to amino acids 1-169, produced at Accelegan Inc.); biotin (biotinylated); purchased Accelegan Inc
# Sequence (P01116 1-169 isoform P01116-2 G12D): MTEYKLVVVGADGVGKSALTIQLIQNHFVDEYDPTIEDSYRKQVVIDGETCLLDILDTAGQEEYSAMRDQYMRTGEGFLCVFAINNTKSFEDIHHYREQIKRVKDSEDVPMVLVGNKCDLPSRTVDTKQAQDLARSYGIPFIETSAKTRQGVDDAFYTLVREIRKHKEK
# test name: KRas binding assay (TR-FRET tracer displacement), KRas G12D
experimental readout: IC50 (nM)
Express your answer in nM, writing the number without its unit.

Before answering, review these 2 worked examples.
1. CCc1c(F)ccc2cc(O)cc(-c3ncc4c(N5CCCCCC(P(C)(C)=O)C5)nc(OC[C@@]56CCCN5C[C@H](F)C6)nc4c3F)c12 (some centres unmarked)    2130
2. CCOC(=O)C12CCC(CN(c3nc(OC[C@@]45CCCN4C[C@H](F)C5)nc4c(F)c(-c5cc(O)cc6ccc(F)c(CC)c56)ncc34)C1)C2(F)F (some centres unmarked)    692

Give its IC50 value. Item: CCc1c(F)ccc2cc(O)cc(-c3ncc4c(N5C[C@@H]6[C@@H](CS(N)(=O)=O)NC(=O)[C@@H]6C5)nc(OC[C@@]56CCCN5C[C@H](F)C6)nc4c3F)c12
1980

Next up: CCc1c(F)ccc2cc(O)cc(-c3ncc4c(N5CC[C@H]6C(=O)O[C@H]6C5)nc(OC[C@@]56CCCN5C[C@H](F)C6)nc4c3F)c12
189

Also check CCc1c(F)ccc2cc(O)cc(-c3ncc4c(N5CCCCC(C#N)C5)nc(OC[C@@]56CCCN5C[C@H](F)C6)nc4c3F)c12 (some centres unmarked)
4

###

# Tested on: KRas-mediated phosphorylation of ERK in MKN1 cells
# test name: Inhibition of KRas-mediated phosphorylation of ERK (Cisbio HTRF pERK), MKN1 cells
# Type: cell-based
# assay setup: Homo sapiens, MKN-1
Some compounds, each annotated with its measured log10 of IC50.
Scale type: logarithmic (base 10). Underlying IC50 unit: nM.

Recorded results for 4 compounds are shown here.
1. CCc1c(F)ccc2cc(O)cc(-c3ncc4c(N5CC6CCC(C5)C6(C)O)nc(OC[C@@]56CCCN5C[C@H](F)C6)nc4c3F)c12 (some centres unmarked)    2.01
2. CCc1c(F)ccc2cc(O)cc(-c3ncc4c(N5CC6CC(O)C(C6)C5)nc(OC[C@]56CCCN5[C@H](COC(=O)N(C)C)CC6)nc4c3F)c12 (some centres unmarked)    0.30
3. CCc1c(F)ccc2cc(O)cc(-c3ncc4c(N5CCCC(C6(O)CCC6)C5)nc(OC[C@@]56CCCN5C[C@H](F)C6)nc4c3F)c12 (some centres unmarked)    2.47
4. CCc1c(F)ccc2cc(O)cc(-c3ncc4c(/C=C/c5ccnn5C)nc(OC[C@@]56CCCN5C[C@H](F)C6)nc4c3F)c12    3.77

Sample CCc1c(F)ccc2cc(O)cc(-c3ncc4c(N5CCC[C@@](C)(O)C5)nc(OC[C@@]56CCCN5CC(=C(F)F)C6)nc4c3F)c12 (single isomer, unassigned) — what was its log10 of IC50?
0.00

C[C@@H]1C[C@@H]1c1c(Cl)cc(O)cc1-c1ncc2c(N3CC4CCC(C3)N4)nc(OC[C@@]34CCCN3C/C(=C\F)C4)nc2c1F , same question.
1.28

Also CCc1c(F)ccc2cc(O)cc(-c3ncc4c(N5CCC[C@@](C)(O)C5)nc(OC[C@]56CCCN5[C@H](CF)CC6)nc4c3F)c12 , if possible.
0.00

Next entry: CCc1cccc2cc3[nH]ncc3c(-c3ncc4c(N5CCCn6nc(C(=O)N(C)C)cc6C5)nc(OC[C@@]56CCCN5C[C@H](F)C6)nc4c3F)c12
0.70

Follow-up entry: CCc1c(F)ccc2cc(O)cc(-c3ncc4c(N5C[C@H]6CC[C@@H](C5)N6C5CC(F)(F)C5)nc(OC[C@@]56CCCN5C[C@H](F)C6)nc4c3F)c12
1.11

Can you check C[C@@H]1C[C@@H]1c1c(Cl)cc(O)cc1-c1ncc2c(N3C[C@@H]4C[C@H](C3)[C@H](O)C4)nc(OC[C@@]34CCCN3C[C@H](F)C4)nc2c1F (stereo in doubt) next?
0.60

###

# test target: KRas^G12R (Homo sapiens, UniProt P01116, G12R)
# Construct: Biotinylated KRas (corresponding to amino acids 1-169, produced at Accelegan Inc.); biotin (biotinylated); purchased Accelegan Inc
# test name: KRas binding assay (TR-FRET tracer displacement), KRas G12R
compounds and their reported IC50

1) C#Cc1c(F)ccc2cc(O)cc(-c3ncc4c(N5CCC[C@@](C)(O)C5)nc(OCC5(CN6CCCC6)CC5)nc4c3F)c12    < 2 nM
2) CCc1c(F)ccc2cc(O)cc(-c3ncc4c(N5CCC[C@@](C)(O)C5)nc(OC[C@@]56CCCN5[C@H](COC(C)C)CC6)nc4c3F)c12    < 2 nM
3) CCc1c(F)ccc2cc(O)cc(-c3ncc4c(N5CC6CCC(C5)C6C(N)=O)nc(OC[C@@]56CCCN5C[C@H](F)C6)nc4c3F)c12 (stereo partly drawn)    < 2 nM
4) CCc1c(F)ccc2cc(O)cc(-c3ncc4c(N5C[C@@H]6C[C@H](C5)[C@H](O)[C@@H]6O)nc(OC[C@@]56CCCN5C[C@H](F)C6)nc4c3F)c12    < 2 nM

Record lookup: for KRas^G12R (Homo sapiens, UniProt P01116, G12R), what IC50 belongs to CCc1c(F)ccc2cc(O)cc(-c3ncc4c(N5CCC[C@@](C)(O)C5)nc(OC[C@@]56CCCN5[C@H](COC(=O)N5CCCC5)CC6)nc4c3F)c12 ?
< 2 nM

Check CCc1c(F)ccc2cc(O)cc(-c3ncc4c(N5CCCC6(CNC(=O)N6)C5)nc(OC[C@]56CCCN5[C@H](COC(=O)N(C)C)CC6)nc4c3F)c12 (stereo partly drawn) too.
< 2 nM
